target_desc: T1, Homer1 EVH1 (Homo sapiens, UniProt Q86YM7)
T1 chain: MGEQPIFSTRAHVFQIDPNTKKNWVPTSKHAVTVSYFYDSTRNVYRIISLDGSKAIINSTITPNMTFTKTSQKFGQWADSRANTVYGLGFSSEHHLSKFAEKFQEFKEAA
measurement_description: BLI
pKd: −log10 of the molar value.
outcome_measure: pKd

Q) Write down pKd measured for item ALPHPGAAPWPMAFPYQYPPPAHPYNPHPGFPELGY [DVL3P1A]
A) < 3.82
